In this section, each of the compounds is paired with its reported pIC50.
target: hEP4 (Homo sapiens, UniProt P35408)
Sequence (P35408 whole entry): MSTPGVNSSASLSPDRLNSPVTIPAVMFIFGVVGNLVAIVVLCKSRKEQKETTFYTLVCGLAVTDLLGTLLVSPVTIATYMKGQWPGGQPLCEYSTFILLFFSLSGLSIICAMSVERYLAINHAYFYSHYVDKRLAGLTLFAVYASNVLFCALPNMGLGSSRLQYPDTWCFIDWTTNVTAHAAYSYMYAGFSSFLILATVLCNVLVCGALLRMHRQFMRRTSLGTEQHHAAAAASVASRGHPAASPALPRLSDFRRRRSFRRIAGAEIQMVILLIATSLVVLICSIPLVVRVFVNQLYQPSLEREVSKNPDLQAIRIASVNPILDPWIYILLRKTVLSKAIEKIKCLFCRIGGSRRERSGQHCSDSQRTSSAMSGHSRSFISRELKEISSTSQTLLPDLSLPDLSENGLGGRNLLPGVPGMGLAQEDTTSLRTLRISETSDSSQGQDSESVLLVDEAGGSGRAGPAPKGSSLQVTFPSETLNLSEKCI
pIC50: −log10 of the molar value.
assay-metric: pIC50

>  <compound>
CCOC(=O)CCCCCCN1C(=O)CC[C@@H]1/C=C/C(=O)Cc1cccc(C(F)(F)F)c1

>  <target-or-test-system>
hEP4 (Homo sapiens, UniProt P35408)

>  <observed-result>
< 5.00

$$$$
>  <compound>
CCOC(=O)CCCCCCN1C(=O)CC[C@@H]1CCC(=O)Cc1cccc(C(F)(F)F)c1

>  <target-or-test-system>
hEP4 (Homo sapiens, UniProt P35408)

>  <observed-result>
< 5.00

$$$$
>  <compound>
CCOC(=O)CCCCCCN1C(=O)CC[C@@H]1/C=C/C(=O)Cc1ccccc1 [Example 12a]

>  <target-or-test-system>
hEP4 (Homo sapiens, UniProt P35408)

>  <observed-result>
< 5.00

$$$$

###

biological target: hEP4 (Homo sapiens); assay: Functional data, human recombinant EP4 receptor stable transfectants

>  <molecule>
CCOC(=O)CCCCCCN1C(=O)CC[C@@H]1/C=C/C(=O)Cc1cccc(C(F)(F)F)c1

>  <target-or-test-system>
hEP4 (Homo sapiens)

>  <result-modifier>
>

>  <EC50, µM>
10

$$$$
>  <molecule>
CCOC(=O)CCCCCCN1C(=O)CC[C@@H]1CCC(=O)Cc1ccccc1

>  <target-or-test-system>
hEP4 (Homo sapiens)

>  <result-modifier>
>

>  <EC50, µM>
10

$$$$
>  <molecule>
O=C(O)CCCCCCN1C(=O)CC[C@@H]1/C=C/C(=O)Cc1cccc(C(F)(F)F)c1

>  <target-or-test-system>
hEP4 (Homo sapiens)

>  <result-modifier>
=

>  <EC50, µM>
0.086

$$$$
>  <molecule>
O=C(O)CCCCCCN1C(=O)CC[C@@H]1/C=C/C(=O)Cc1ccccc1 [Example 11a]

>  <target-or-test-system>
hEP4 (Homo sapiens)

>  <result-modifier>
=

>  <EC50, µM>
0.029

$$$$
>  <molecule>
CCOC(=O)CCCCCCN1C(=O)CC[C@@H]1CCC(=O)Cc1cccc(C(F)(F)F)c1

>  <target-or-test-system>
hEP4 (Homo sapiens)

>  <result-modifier>
=

>  <EC50, µM>
7.16

$$$$
>  <molecule>
CCOC(=O)CCCCCCN1C(=O)CC[C@@H]1/C=C/C(O)Cc1ccccc1 (stereo partly drawn) [Example 10a]

>  <target-or-test-system>
hEP4 (Homo sapiens)

>  <result-modifier>
=

>  <EC50, µM>
0.368

$$$$
>  <molecule>
CCOC(=O)CCCCCCN1C(=O)CC[C@@H]1/C=C/C(=O)Cc1ccccc1 [Example 12a]

>  <target-or-test-system>
hEP4 (Homo sapiens)

>  <result-modifier>
>

>  <EC50, µM>
10

$$$$
>  <molecule>
CCOC(=O)CCCCCCN1C(=O)CC[C@@H]1/C=C/C(=O)Cc1cccc(Cl)c1

>  <target-or-test-system>
hEP4 (Homo sapiens)

>  <result-modifier>
>

>  <EC50, µM>
10

$$$$
>  <molecule>
CCOC(=O)CCCCCCN1C(=O)CC[C@@H]1CCC(O)Cc1ccccc1 (stereo partly drawn)

>  <target-or-test-system>
hEP4 (Homo sapiens)

>  <result-modifier>
=

>  <EC50, µM>
1.02

$$$$

###

In this section, each of the molecules is paired with its reported EC50.
molecular target: hEP3A (Homo sapiens); test: Functional data, human recombinant EP3A receptor stable transfectants
Sequence (P43115 whole entry): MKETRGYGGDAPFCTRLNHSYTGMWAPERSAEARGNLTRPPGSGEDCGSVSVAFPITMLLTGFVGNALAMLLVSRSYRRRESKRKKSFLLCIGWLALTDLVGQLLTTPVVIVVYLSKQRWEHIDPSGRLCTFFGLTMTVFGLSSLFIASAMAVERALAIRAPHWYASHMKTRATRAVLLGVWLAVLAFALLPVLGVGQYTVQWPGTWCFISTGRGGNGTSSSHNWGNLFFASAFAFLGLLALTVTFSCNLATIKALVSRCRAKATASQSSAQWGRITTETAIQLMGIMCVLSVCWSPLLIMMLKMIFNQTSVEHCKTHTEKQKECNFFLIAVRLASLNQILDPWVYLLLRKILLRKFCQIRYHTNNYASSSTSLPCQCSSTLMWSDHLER
assay-metric: EC50

>  <molecule>
CCOC(=O)CCCCCCN1C(=O)CC[C@@H]1/C=C/C(=O)Cc1cccc(C(F)(F)F)c1

>  <assay-metric>
EC50

>  <observed-result>
> 10 µM

$$$$
>  <molecule>
O=C(O)CCCCCCN1C(=O)CC[C@@H]1CCC(O)Cc1ccccc1 (stereo partly drawn)

>  <assay-metric>
EC50

>  <observed-result>
> 10 µM

$$$$
>  <molecule>
CCOC(=O)CCCCCCN1C(=O)CC[C@@H]1/C=C/C(O)Cc1cccc(C(F)(F)F)c1 (stereo partly drawn)

>  <assay-metric>
EC50

>  <observed-result>
> 10 µM

$$$$
